The reported numbers originate from ChEMBL document CHEMBL4342466.

Assay: Plasma concentration in mouse xenografted with human HMC1 cells at 10 mg/kg, iv dosed at time 0 and again 24 hrs later and measured at 2 hrs after second dose by LC-MS/MS analysis
Format: ADME, organism-based
Measured concentration at 2 h accompanies every entry in the list below.
PROPERTY MEASURED: concentration at 2 h (nM)

SMILES STR	PROPERTY MEASURED	UNIT ANNOTATION	OBSERVED VALUE
NCc1ccc2c(c1)C1(CCN(C(=O)c3cccc(-c4cccc(B(O)O)c4)c3)CC1)CO2.O=C(O)C(F)(F)F	concentration at 2 h	nM	1290
NCc1ccc2c(c1)C1(CCN(C(=O)c3cc(O)c(O)c(Cl)c3)CC1)CO2.O=C(O)C(F)(F)F	concentration at 2 h	nM	311
